B1: Gamma-crystallin C, residues 91 to 170; numbered along this chain, P07315 (parent)
chain: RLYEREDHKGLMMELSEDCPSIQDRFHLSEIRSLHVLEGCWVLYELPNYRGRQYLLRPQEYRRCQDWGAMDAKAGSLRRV

Variants of: B1
Assay Procedure: abundance fitness (aPCA) (normalised: wild type 0, dead -1); higher = more abundant; growth selection in yeast, the domain comes from the species named
Assay Setup: Homo sapiens
Property Measured: abundance fitness
// print number alone

Please look up its abundance fitness: M12D
-0.863

Please look up its abundance fitness: R57N
0.021

Please look up its abundance fitness: H35S
-0.05

Please look up its abundance fitness: D7T
-0.995

Please look up its abundance fitness: C19S
-0.92

Please look up its abundance fitness: V36W
-0.788

Please look up its abundance fitness: R32M
-0.412

Please look up its abundance fitness: E38D
0.013

Please look up its abundance fitness: L43H
-0.757

Please look up its abundance fitness: R5T
-0.747

Please look up its abundance fitness: E4R
-0.582

Please look up its abundance fitness: I22Y
-0.6

Please look up its abundance fitness: E4H
-0.571

Please look up its abundance fitness: G51V
-0.93

Please look up its abundance fitness: Y54K
-0.76

Please look up its abundance fitness: Q53P
-0.144

Please look up its abundance fitness: E14Q
-0.227

Please look up its abundance fitness: E6G
-0.803

Please look up its abundance fitness: L56E
-0.93

Please look up its abundance fitness: E30P
-1.17

Please look up its abundance fitness: H35I
-0.004

Please look up its abundance fitness: L77I
0.011

Please look up its abundance fitness: Y49R
-0.9

Please look up its abundance fitness: K9F
-0.559

Please look up its abundance fitness: S33Y
-0.424

Please look up its abundance fitness: Q59F
-0.377

Please look up its abundance fitness: R63L
-0.654

Please look up its abundance fitness: E60A
0.045

Please look up its abundance fitness: L28F
-0.335

Please look up its abundance fitness: M70T
-0.06

Please look up its abundance fitness: S76V
-0.773

Please look up its abundance fitness: S21N
0.053

Please look up its abundance fitness: I31C
-0.833

Please look up its abundance fitness: Y49C
-0.914

Please look up its abundance fitness: M12K
-0.464

Please look up its abundance fitness: C64F
-0.093

Please look up its abundance fitness: Q23R
-0.128

Please look up its abundance fitness: M13P
-1

Please look up its abundance fitness: H27C
-0.115

Please look up its abundance fitness: L34M
0.027

Please look up its abundance fitness: D18W
-0.997

Please look up its abundance fitness: N48K
-0.215

Please look up its abundance fitness: R52H
-0.324

Please look up its abundance fitness: Y61I
-0.808

Please look up its abundance fitness: L15G
-1.03

Please look up its abundance fitness: E6A
-0.284

Values were extracted from the Human Domainome abundance scans (Beltran et al. 2025).
